target: human glucagon receptor (human, UniProt P47871 26-477); assay: cell-based or functional assay
Sequence (P47871 26-477): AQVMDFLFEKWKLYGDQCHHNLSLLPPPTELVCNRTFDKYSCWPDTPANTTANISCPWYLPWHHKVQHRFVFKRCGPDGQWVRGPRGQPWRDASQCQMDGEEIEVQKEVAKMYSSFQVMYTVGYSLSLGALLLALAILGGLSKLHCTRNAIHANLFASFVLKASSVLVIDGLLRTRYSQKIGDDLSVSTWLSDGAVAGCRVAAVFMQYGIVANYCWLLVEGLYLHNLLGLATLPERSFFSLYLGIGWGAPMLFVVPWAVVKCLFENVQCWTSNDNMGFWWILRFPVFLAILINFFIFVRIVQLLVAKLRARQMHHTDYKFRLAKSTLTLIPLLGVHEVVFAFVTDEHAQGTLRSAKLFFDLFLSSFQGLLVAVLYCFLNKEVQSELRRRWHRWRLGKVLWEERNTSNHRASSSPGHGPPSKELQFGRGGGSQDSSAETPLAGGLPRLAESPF
metric: cAMP EC50, in the presence of FBS and BSA (nM)

binder	uom	readout-value
YXHGTXTSDYSILLDKKAQXAFIEYLLEGGPSSGAPPPS (Aib at 2; αMeF(2F) at 6; K17 conjugated at the epsilon-amino group with (2-[2-(2-amino-ethoxy)-ethoxy]-acetyl)2-(γGlu)-CO-(CH2)18-CO2H; Aib at 20; C-terminal amide, Synthetic acylated peptide) [Example 3]	nM	3.46
YXQGTXTSDYSILLDKKAQXAFIEYLLEGGPSSGAPPPS (Aib at 2; αMeF at 6; K17 conjugated at the epsilon-amino group with (2-[2-(2-amino-ethoxy)-ethoxy]-acetyl)2-(γGlu)-CO-(CH2)18-CO2H; Aib at 20; C-terminal amide, Synthetic acylated peptide) [Example 1]	nM	6.33
YXQGTXTSDYSIXLDKKAQXAFIEYLLEGGPSSGAPPPS (Aib at 2; αMeF at 6; αMeL at 13; K17 conjugated at the epsilon-amino group with (2-[2-(2-amino-ethoxy)-ethoxy]-acetyl)2-(γGlu)-CO-(CH2)18-CO2H; Aib at 20; C-terminal amide, Synthetic acylated peptide) [Example 2]	nM	4.75
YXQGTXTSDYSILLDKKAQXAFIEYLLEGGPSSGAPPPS (Aib at 2; αMeF(2F) at 6; K17 conjugated at the epsilon-amino group with (2-[2-(2-amino-ethoxy)-ethoxy]-acetyl)-(γGlu)-CO-(CH2)18-CO2H; Aib at 20; C-terminal amide, Synthetic acylated peptide) [Example 4]	nM	1.78
